FYI, the data here is from ChEMBL document CHEMBL1136067.

# Test system: Leishmania donovani
# procedure_details: Inhibitory activity against Leishmania donovani (amastigote)
# Format: functional, organism-based
# conditions: read-out: IC50
List of log10(IC50) values.
Reminder: these figures are log10 of reported IC50, in µM before transformation.

// worked examples, log10(IC50) included
COc1cc(-c2ccc(-c3ccc(N=C(N)N)c(OC)c3)o2)ccc1N=C(N)N
1.16
COc1cc(NC(=N)N)ccc1-c1ccc(-c2ccc(NC(=N)N)cc2OC)o1
1.27
Cc1cc(NC(=N)N)ccc1-c1ccc(-c2ccc(NC(=N)N)cc2C)o1
0.52
N=C(N)c1ccc(-c2ccc(-c3ccc(C(=N)N)cc3)o2)cc1
0.43

Ask | Need log10(IC50), item Cc1c(/N=C(\N)c2ccccn2)ccc(-c2ccc(-c3ccc(/N=C(\N)c4ccccn4)c(C)c3C)o2)c1C
Reply | 0.06

Ask | Again, but for N=C(N)Nc1ccc(-c2ccc(-c3ccc(NC(=N)N)cc3Cl)o2)c(Cl)c1
Reply | 0.79

Ask | Again, but for Cc1c(N=C(N)N)ccc(-c2ccc(-c3ccc(N=C(N)N)c(C)c3C)o2)c1C
Reply | 0.62

Ask | Again, but for N=C(Nc1ccc(-c2ccc(-c3ccc(NC(=N)c4ccccn4)cc3)o2)cc1)c1ccccn1
Reply | -0.26
